Cited source for all entries: patent US20240166635A1

Target: CDK9/CyclinT1 (Homo sapiens (Human), UniProt P50750)
Sequence (P50750 whole entry): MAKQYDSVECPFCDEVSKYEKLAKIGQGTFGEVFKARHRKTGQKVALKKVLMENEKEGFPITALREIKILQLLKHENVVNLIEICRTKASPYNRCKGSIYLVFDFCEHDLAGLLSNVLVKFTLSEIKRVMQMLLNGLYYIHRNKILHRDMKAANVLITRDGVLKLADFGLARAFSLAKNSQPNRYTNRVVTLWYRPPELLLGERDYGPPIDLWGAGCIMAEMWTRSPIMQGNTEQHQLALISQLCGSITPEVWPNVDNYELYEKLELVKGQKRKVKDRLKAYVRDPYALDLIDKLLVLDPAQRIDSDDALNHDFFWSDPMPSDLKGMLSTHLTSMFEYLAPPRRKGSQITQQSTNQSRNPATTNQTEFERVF
Sequence (O60563 whole entry partner): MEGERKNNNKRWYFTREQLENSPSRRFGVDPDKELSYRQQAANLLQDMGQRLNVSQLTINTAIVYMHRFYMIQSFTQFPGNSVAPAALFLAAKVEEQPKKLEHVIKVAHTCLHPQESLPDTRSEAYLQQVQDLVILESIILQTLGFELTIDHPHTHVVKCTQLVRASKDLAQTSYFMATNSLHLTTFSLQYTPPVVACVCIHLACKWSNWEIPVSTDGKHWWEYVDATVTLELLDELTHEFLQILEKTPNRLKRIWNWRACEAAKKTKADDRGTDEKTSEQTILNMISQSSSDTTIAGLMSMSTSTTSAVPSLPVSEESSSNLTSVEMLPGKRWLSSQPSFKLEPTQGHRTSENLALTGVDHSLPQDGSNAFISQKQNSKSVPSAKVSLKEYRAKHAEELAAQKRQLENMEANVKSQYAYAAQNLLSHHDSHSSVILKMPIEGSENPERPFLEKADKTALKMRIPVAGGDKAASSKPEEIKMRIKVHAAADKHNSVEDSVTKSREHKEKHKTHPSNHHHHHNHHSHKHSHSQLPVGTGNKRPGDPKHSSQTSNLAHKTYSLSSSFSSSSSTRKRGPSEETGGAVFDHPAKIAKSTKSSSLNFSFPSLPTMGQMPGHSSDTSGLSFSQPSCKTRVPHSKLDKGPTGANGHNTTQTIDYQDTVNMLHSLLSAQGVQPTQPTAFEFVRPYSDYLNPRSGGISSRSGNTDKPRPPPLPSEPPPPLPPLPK
Experiment: CDK9/CyclinT1 kinase inhibitory activity (Caliper mobility shift)
Details: read-out: CDK9/Cyclin T1 IC50
VALUE_TYPE: IC50

Would you please look over these solved cases?
CNS(=O)(=O)c1ccc(Nc2ncc(C#N)c(OC3CCCC3(C)O)n2)cc1 (single isomer, unassigned) [Example 34b]	≥ 1 µM
CC1CCCC(O)C1Oc1nc(Nc2ccc(S(N)(=O)=O)cc2)ncc1C(F)(F)F (single isomer, unassigned) [Example 112b]	0.1 to 1 µM
C=C(F)c1cnc(Nc2ccc(S(=O)(=O)NC)cc2)nc1O[C@@H]1CCC[C@@H]1O (single isomer, unassigned) [Example 135b]	0.1 to 1 µM

stdin: Requested read-out: IC50. Entry: CC1(COc2nc(Nc3ccc(S(N)(=O)=O)cc3)ncc2C#N)CCCCC1
stdout: 0.1 to 1 µM

stdin: Requested read-out: IC50. Entry: N#Cc1cnc(Nc2ccc(S(N)(=O)=O)cc2)nc1OCC1CCC1
stdout: 0.1 to 1 µM

* * *

Target: CDK6/CyclinD1 (Homo sapiens (Human))
Sequence (Q00534 whole entry): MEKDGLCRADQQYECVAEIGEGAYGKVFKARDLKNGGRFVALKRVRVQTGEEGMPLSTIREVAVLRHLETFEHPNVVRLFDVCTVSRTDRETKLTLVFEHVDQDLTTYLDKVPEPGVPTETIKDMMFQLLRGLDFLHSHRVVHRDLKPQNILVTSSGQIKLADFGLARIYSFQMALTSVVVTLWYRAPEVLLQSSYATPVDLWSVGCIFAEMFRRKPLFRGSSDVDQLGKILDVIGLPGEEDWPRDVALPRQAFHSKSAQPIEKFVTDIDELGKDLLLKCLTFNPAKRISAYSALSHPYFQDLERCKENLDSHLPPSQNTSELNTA
Sequence (P24385 whole entry partner): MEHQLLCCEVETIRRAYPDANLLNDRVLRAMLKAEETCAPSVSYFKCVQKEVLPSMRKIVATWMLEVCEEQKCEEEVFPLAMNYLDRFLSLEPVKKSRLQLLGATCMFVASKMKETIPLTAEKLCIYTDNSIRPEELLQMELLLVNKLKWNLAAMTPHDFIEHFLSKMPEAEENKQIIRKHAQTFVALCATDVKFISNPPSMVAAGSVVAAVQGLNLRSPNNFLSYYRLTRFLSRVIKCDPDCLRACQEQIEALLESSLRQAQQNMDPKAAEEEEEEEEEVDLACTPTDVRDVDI
Assay: CDK6/CyclinD1 kinase inhibitory activity (Caliper mobility shift)
Details: read-out: CDK6/Cyclin D1 IC50
IC50 values, listed per item

Would you please look over these solved cases?
CC1(O)CCCC1Oc1nc(NC2CCN(S(=O)(=O)CF)CC2)ncc1C#N (single isomer, unassigned) [Example 37a]	10 to 100 nM
Cn1cc(S(=O)(=O)N2CCC(Nc3ncc(C(F)(F)F)c(OC4CCOCC4(C)O)n3)CC2)cn1 (single isomer, unassigned) [Example 125b]	100 to 1000 nM
CC(C)NS(=O)(=O)c1ccc(Nc2ncc(C#N)c(OC3CCC[C@H]3O)n2)cc1 (mixture of isomers)	100 to 1000 nM
[2H]C([2H])([2H])NS(=O)(=O)c1ccc(Nc2ncc(C(F)(F)F)c(OC3CCCC3O)n2)cc1 (single isomer, unassigned) [Example 109a]	100 to 1000 nM
C[C@]1(O)COC[C@H]1Oc1nc(NC2CCN(S(C)(=O)=O)CC2)ncc1C(F)(F)F (relative stereo) [Example 104a]	10 to 100 nM

Okay, now this compound:
stdin: Requested read-out: IC50. Entry: Cn1cc(S(=O)(=O)N2CCC(Nc3ncc(C#N)c(O[C@@H]4CCC(F)(F)C[C@]4(C)O)n3)CC2)cn1 (relative stereo) [Example 7a]
stdout: < 10 nM

* * *

Molecular target: CDK1/CyclinB (Homo sapiens (Human))
Experiment: CDK1/CyclinB kinase inhibitory activity (Caliper mobility shift)
Settings: read-out: CDK1/Cyclin B1 IC50
VALUE_TYPE: IC50

N#Cc1cnc(Nc2ccc(S(N)(=O)=O)cc2)nc1OC1CCCC(O)C1 (single isomer, unassigned) [Example 21a]	100 to 1000 nM
[2H]C([2H])([2H])NS(=O)(=O)c1ccc(Nc2ncc(C(F)(F)F)c(O[C@H]3CCOC[C@H]3O)n2)c(F)c1 (single isomer, unassigned) [Example 101a]	100 to 1000 nM

stdin: Requested read-out: IC50. Entry: CC(C)NS(=O)(=O)c1ccc(Nc2ncc(C#N)c(OC3CCCCC3O)n2)cc1 (single isomer, unassigned) [Example 30b]
stdout: 100 to 1000 nM

stdin: Requested read-out: IC50. Entry: O=S(=O)(NC1CCOCC1)c1ccc(Nc2ncc(Cl)c(O[C@@H]3CCC[C@@H]3O)n2)cc1 (single isomer, unassigned) [Example 130a]
stdout: 10 to 100 nM

* * *

IC50 values, listed per item
Biological target: CDK4/Cyclin D1 (Homo sapiens (Human), UniProt P11802)
Sequence (P11802 whole entry): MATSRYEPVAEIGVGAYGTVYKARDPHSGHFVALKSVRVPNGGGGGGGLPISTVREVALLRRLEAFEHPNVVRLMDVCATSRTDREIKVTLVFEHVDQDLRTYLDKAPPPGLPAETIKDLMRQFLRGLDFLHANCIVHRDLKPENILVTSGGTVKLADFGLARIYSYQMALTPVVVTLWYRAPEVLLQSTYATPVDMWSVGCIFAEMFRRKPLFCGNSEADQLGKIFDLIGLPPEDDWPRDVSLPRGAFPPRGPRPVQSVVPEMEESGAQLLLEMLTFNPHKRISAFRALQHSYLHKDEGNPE
Sequence (P24385 whole entry partner): as the sequence (P24385 whole entry partner) above
Assay: CDK4/CyclinD1 kinase inhibitory activity (Caliper mobility shift)

Would you please look over these solved cases?
CC(C)NS(=O)(=O)c1ccc(Nc2ncc(C#N)c(OC3CCC[C@H]3O)n2)cc1 (mixture of isomers) [Example 27]	100 to 1000 nM
[2H]C([2H])([2H])NS(=O)(=O)c1ccc(Nc2ncc(CC)c(OC3COCC3(C)O)n2)cc1 (single isomer, unassigned) [Example 150a]	100 to 1000 nM
CNS(=O)(=O)N1CCC(Nc2ncc(C(F)(F)F)c(OC3CCCCCC3O)n2)CC1 (single isomer, unassigned) [Example 123b]	10 to 100 nM
C[C@]1(O)CCC[C@H]1Oc1nc(NC2CCN(S(C)(=O)=O)CC2)ncc1C#N (relative stereo) [Example 5b]	100 to 1000 nM
Cn1cc(S(=O)(=O)N2CCC(Nc3ncc(C#N)c(OC4CCCC4(C)O)n3)CC2)cn1 (single isomer, unassigned) [Example 48b]	10 to 100 nM

stdin: Entry N#Cc1cnc(Nc2ccc(S(N)(=O)=O)cc2)nc1N1CCC[C@H](F)C1 [Example 81] , system CDK4/Cyclin D1 (Homo sapiens (Human), UniProt P11802): what IC50 was measured?
stdout: 10 to 100 nM

stdin: Entry CS(=O)(=O)N1CCC(Nc2ncc(C(F)(F)F)c(OC3CCCCC3)n2)CC1 [Example 127] , system CDK4/Cyclin D1 (Homo sapiens (Human), UniProt P11802): what IC50 was measured?
stdout: < 10 nM

stdin: Entry CC1(O)CCCC1Oc1nc(NC2CCN(S(=O)(=O)C(F)(F)F)CC2)ncc1C#N (single isomer, unassigned) [Example 42a] , system CDK4/Cyclin D1 (Homo sapiens (Human), UniProt P11802): what IC50 was measured?
stdout: 10 to 100 nM

stdin: Entry [2H]C([2H])([2H])NS(=O)(=O)c1ccc(Nc2ncc(C)c(OC3CCCC3O)n2)cc1 (single isomer, unassigned) [Example 148a] , system CDK4/Cyclin D1 (Homo sapiens (Human), UniProt P11802): what IC50 was measured?
stdout: ≥ 1000 nM

stdin: Entry Cn1cnc(S(=O)(=O)N2CCC(Nc3ncc(C#N)c(OC4CCCC4(C)O)n3)CC2)c1 (single isomer, unassigned) [Example 50a] , system CDK4/Cyclin D1 (Homo sapiens (Human), UniProt P11802): what IC50 was measured?
stdout: < 10 nM

stdin: Entry Cn1cc(S(=O)(=O)N2CCC(Nc3ncc(C#N)c(O[C@@H]4CCC(F)(F)C[C@]4(C)O)n3)CC2)cn1 (relative stereo) [Example 7b] , system CDK4/Cyclin D1 (Homo sapiens (Human), UniProt P11802): what IC50 was measured?
stdout: 100 to 1000 nM

stdin: Entry CC1(O)CCCC1Oc1nc(NC2CCN(S(=O)(=O)CC3CCOC3)CC2)ncc1C#N (single isomer, unassigned) [Example 40a] , system CDK4/Cyclin D1 (Homo sapiens (Human), UniProt P11802): what IC50 was measured?
stdout: < 10 nM

stdin: Entry Cn1cnc(S(=O)(=O)N2CCC(Nc3ncc(C#N)c(OC4CCCC4(C)O)n3)CC2)c1 (single isomer, unassigned) [Example 50b] , system CDK4/Cyclin D1 (Homo sapiens (Human), UniProt P11802): what IC50 was measured?
stdout: 10 to 100 nM

* * *

IC50 values, listed per item
Target: CDK9/CyclinT1 (Homo sapiens (Human))
Test: CDK9/CyclinT1 kinase inhibitory activity (Caliper mobility shift)
Conditions: read-out: CDK9/Cyclin T1 IC50

Would you please look over these solved cases?
[2H]C([2H])([2H])NS(=O)(=O)c1ccc(Nc2ncc(C(=C)F)c(O[C@@H]3CCC[C@@H]3O)n2)cc1 (single isomer, unassigned) [Example 135a]	100 to 1000 nM
O=S(=O)(NC1CCOCC1)c1ccc(Nc2ncc(Cl)c(O[C@@H]3CCC[C@@H]3O)n2)cc1 (single isomer, unassigned) [Example 130b]	100 to 1000 nM
CC1(O)CCCC1Oc1nc(Nc2ccc(S(N)(=O)=O)cc2)ncc1C#N (single isomer, unassigned) [Example 23b]	100 to 1000 nM

stdin: Requested read-out: IC50. Entry: N#Cc1cnc(Nc2ccc(S(N)(=O)=O)cc2)nc1O[C@@H]1CCCC[C@@H]1O (single isomer, unassigned) [Example 2b]
stdout: ≥ 1000 nM

stdin: Requested read-out: IC50. Entry: N#Cc1cnc(Nc2ccc(S(=O)(=O)NC3CC(F)C3)cc2)nc1OC1CCCCC1O (single isomer, unassigned) [Example 31b]
stdout: ≥ 1000 nM

stdin: Requested read-out: IC50. Entry: [2H]C([2H])([2H])NS(=O)(=O)c1ccc(Nc2ncc(CC)c(OC3CCOCC3(C)O)n2)cc1 (single isomer, unassigned) [Example 152a]
stdout: 10 to 100 nM

* * *

pIC50 values, listed per item
Biological target: CDK1/CyclinB (Homo sapiens (Human), UniProt P06493)
Sequence (P06493 whole entry): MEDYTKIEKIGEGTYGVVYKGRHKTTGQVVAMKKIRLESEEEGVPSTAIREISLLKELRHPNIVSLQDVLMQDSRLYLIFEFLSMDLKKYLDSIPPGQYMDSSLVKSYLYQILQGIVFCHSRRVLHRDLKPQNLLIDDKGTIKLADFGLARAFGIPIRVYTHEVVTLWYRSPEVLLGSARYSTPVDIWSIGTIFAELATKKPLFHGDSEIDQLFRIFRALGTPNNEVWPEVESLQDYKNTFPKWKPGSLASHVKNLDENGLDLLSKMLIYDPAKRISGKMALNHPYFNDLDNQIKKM
Sequence (P14635 whole entry partner): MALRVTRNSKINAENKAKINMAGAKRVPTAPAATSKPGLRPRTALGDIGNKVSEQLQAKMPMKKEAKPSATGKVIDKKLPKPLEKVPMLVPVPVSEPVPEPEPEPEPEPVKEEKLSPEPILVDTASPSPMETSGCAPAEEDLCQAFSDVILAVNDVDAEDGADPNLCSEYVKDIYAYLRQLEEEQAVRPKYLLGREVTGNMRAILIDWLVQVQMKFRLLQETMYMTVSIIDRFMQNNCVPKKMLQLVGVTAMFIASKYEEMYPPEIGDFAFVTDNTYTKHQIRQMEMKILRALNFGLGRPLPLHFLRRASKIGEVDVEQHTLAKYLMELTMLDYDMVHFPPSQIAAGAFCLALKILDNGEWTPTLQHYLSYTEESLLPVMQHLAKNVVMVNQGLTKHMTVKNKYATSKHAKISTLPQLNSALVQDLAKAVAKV
Assay: CDK1/CyclinB kinase inhibitory activity (Caliper mobility shift)
Details: read-out: CDK1/Cyclin B1 IC50
pIC50: −log10 of the molar value.

Would you please look over these solved cases?
[2H]C([2H])([2H])NS(=O)(=O)c1ccc(Nc2ncc(C(F)(F)F)c(OC3CCOCCC3O)n2)cc1 (single isomer, unassigned) [Example 102c]	6.00 to 7.00
Cn1cc(S(=O)(=O)N2CCC(Nc3ncc(C#N)c(OC4CCCC4(C)O)n3)CC2)cn1 (single isomer, unassigned) [Example 48b]	7.00 to 8.00
CC1(C)CCCN(c2nc(Nc3ccc(S(N)(=O)=O)cc3)ncc2C#N)C1 [Example 83]	7.00 to 8.00
Cn1cc(S(=O)(=O)N2CCC(Nc3ncc(C#N)c(O[C@@H]4CCC(F)(F)C[C@]4(C)O)n3)CC2)cn1 (relative stereo) [Example 7a]	> 8.00
NS(=O)(=O)c1ccc(Nc2ncc(C(F)(F)F)c(O[C@@H]3CCC[C@@H]3O)n2)cc1 (single isomer, unassigned) [Example 99b]	7.00 to 8.00
CNS(=O)(=O)c1ccc(Nc2ncc(Br)c(OC3CCCC3O)n2)cc1 (single isomer, unassigned) [Example 142a]	7.00 to 8.00
NS(=O)(=O)c1ccc(Nc2ncc(Br)c(OC3CCCC3O)n2)cc1 (single isomer, unassigned) [Example 141b]	7.00 to 8.00
N#Cc1cnc(Nc2ccc(S(N)(=O)=O)cc2)nc1OC1CCCC1O (single isomer, unassigned) [Example 20b]	6.00 to 7.00
N#Cc1cnc(Nc2ccc(S(N)(=O)=O)cc2)nc1O[C@@H]1CCCC[C@@H]1O (single isomer, unassigned) [Example 2b]	6.00 to 7.00
CC1(COc2nc(NC3CCN(S(N)(=O)=O)CC3)ncc2C#N)CCCC1 [Example 56]	> 8.00

stdin: Requested read-out: pIC50. Entry: CC1(COc2nc(Nc3ccc(S(N)(=O)=O)cc3)ncc2C#N)CCCCC1 [Example 14]
stdout: 6.00 to 7.00

stdin: Requested read-out: pIC50. Entry: N#Cc1cnc(Nc2ccc(S(N)(=O)=O)cc2)nc1N1CCC[C@H](CO)C1 [Example 78]
stdout: 7.00 to 8.00

stdin: Requested read-out: pIC50. Entry: CC(C)NS(=O)(=O)c1ccc(Nc2ncc(C(F)(F)F)c(OC3CCCC3O)n2)cc1 (single isomer, unassigned) [Example 106a]
stdout: > 8.00

stdin: Requested read-out: pIC50. Entry: CO[C@H]1CCCN(c2nc(Nc3ccc(S(N)(=O)=O)cc3)ncc2C#N)C1 [Example 80]
stdout: 6.00 to 7.00
